B1: Zinc finger homeobox protein 4, residues 2086 to 2141; numbered along this chain, Q86UP3 (parent)
chain: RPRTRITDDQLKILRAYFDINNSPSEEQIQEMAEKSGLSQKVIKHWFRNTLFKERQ

Variants of: B1
Experiment: abundance fitness (aPCA) (normalised: wild type 0, dead -1); higher = more abundant; growth selection in yeast, the domain comes from the species named
Conditions: Homo sapiens
valueType: abundance fitness
Answers are plain numbers.

Dear colleague, could you send me abundance fitness for each of the items below? Thanks.
1. P24T
2. Q28V
3. I20R
4. T50I
5. E26D
6. F52Q
7. N21G
8. I29M

1: -0.474; 2: -0.033; 3: -0.007; 4: -0.119; 5: -0.069; 6: 0.006; 7: -0.261; 8: -0.081
